Target: Platelet-activating factor receptor (Mus musculus)
Experiment: Ability to protect mice from lethal effects of an injection of PAF in vivo.
Assay type: functional, organism-based
Details: Mus sp.
The recorded ED50 of each item maps onto one of these classes: 1 = under 2 mg/kg, 2 = from 2 mg/kg up to 4 mg/kg, 3 = 4 mg/kg and over

Field: example entries. Status: answers known.
CCOC(=O)C1=C(c2ccc(-n3c(C)nc4ccncc43)cc2)NC(C)=C(C(=O)Nc2ccccn2)C1c1ccccc1Cl (stereo unspecified)	3
CCOC(=O)C1=C(c2ccc(-n3c(C)nc4cnccc43)cc2)NC(C)=C(C(=O)Nc2ccccn2)C1c1cccc2c1OCO2 (stereo unspecified)	1
CCOC(=O)C1=C(c2ccc(-n3c(C)nc4cnccc43)cc2)NC(C)=C(C(=O)Nc2ccccn2)C1c1ccc(C#N)cc1 (stereo unspecified)	1
CCOC(=O)C1=C(c2ccc(-c3cccnc3C)cc2)NC(C)=C(C(=O)Nc2ccccn2)C1c1ccccc1Cl (stereo unspecified)	2
CCOC(=O)C1=C(c2ccc(-n3c(C)nc4cnccc43)cc2)NC(C)=C(C(=O)O)C1c1ccccc1Cl (stereo unspecified)	3

Exercise: read the entry CCOC(=O)C1=C(c2ccc(-n3c(C)nc4cnccc43)cc2)N=C(C)/C(=C(/O)OC)C1c1ccccc1Cl (stereo unspecified) and state which class it falls under.
1

Would you mind sorting CCOC(=O)C1=C(c2ccc(-n3c(C)nc4cnccc43)cc2)N=C(C)/C(=C(/O)OCCOC)C1c1ccccc1Cl (stereo unspecified) into the appropriate category?
1

Tag the class for CCOC(=O)C1=C(c2ccc(-n3cc(C)nc3C)cc2)NC(C)=C(C(=O)Nc2ccccn2)C1c1ccccc1Cl (stereo unspecified)
2

Band assignment needed for CCOC(=O)C1=C(c2ccc(-n3c(C)nnc3C)cc2)NC(C)=C(C(=O)Nc2ccccn2)C1c1ccccc1Cl (stereo unspecified) please.
3

# classify by ED50 band: CCOC(=O)C1=C(c2ccc(-n3ccnc3C)cc2)NC(C)=C(C(=O)Nc2ccccn2)C1c1ccccc1Cl (stereo unspecified)
3

For the record CCOC(=O)C1=C(c2ccc(-n3c(C)nc4cnccc43)cc2)NC(C)=C(C(=O)Nc2ccccn2)C1c1csc2ccccc12 (stereo unspecified) , report the class its ED50 corresponds to.
1

Hello team, could you let me know which band the following molecule falls into: CCOC(=O)C1=C(c2ccc(-n3c(C)nc4cnccc43)cc2)NC(C)=C(C(N)=O)C1c1ccccc1Cl (stereo unspecified)
1

Textbook exercise: identify the category of the molecule given here, CCOC(=O)C1=C(c2ccc(-c3c(C)nc4ccccn34)cc2)NC(C)=C(C(=O)Nc2ccccn2)C1c1ccccc1Cl (stereo unspecified) , according to its measured value.
3

----------
Biological target: Platelet-activating factor receptor (Mus musculus) (UniProt Q62035)
Sequence (Q62035 whole entry): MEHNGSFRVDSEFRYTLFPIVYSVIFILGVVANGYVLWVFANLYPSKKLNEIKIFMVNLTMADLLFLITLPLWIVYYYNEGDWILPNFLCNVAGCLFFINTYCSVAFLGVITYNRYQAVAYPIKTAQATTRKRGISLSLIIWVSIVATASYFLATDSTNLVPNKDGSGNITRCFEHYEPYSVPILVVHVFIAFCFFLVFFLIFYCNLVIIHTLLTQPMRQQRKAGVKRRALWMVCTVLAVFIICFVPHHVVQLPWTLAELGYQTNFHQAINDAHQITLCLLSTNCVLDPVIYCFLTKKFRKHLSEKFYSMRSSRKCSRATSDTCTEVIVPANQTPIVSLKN
Assay: Ability to protect mice from lethal effects of an injection of PAF in vivo.
Assay type: functional, organism-based
Conditions: Mus sp.
Measured ED50 accompanies every entry in the list below.
Record the value in mg/kg, omitting the unit from your answer.

CCOC(=O)C1=C(c2ccc(-n3c(C)nc4c(C)nc(C)cc43)cc2)NC(C)=C(C(=O)Nc2ccccn2)C1c1ccccc1Cl (stereo unspecified)	0.3
CCOC(=O)C1=C(c2ccc(-n3c(C)nc4cccnc43)cc2)NC(C)=C(C(=O)Nc2ccccn2)C1c1ccccc1Cl (stereo unspecified)	23
CCOC(=O)C1=C(c2ccc(-n3c(C)nc4cnccc43)cc2)NC(C)=C(C(=O)NC(C)(C)C)C1c1ccccc1Cl (stereo unspecified)	2.1
CCOC(=O)C1=C(c2ccc(-n3c(C)nc4cnccc43)cc2)NC(C)=C(C(=O)Nc2ccccn2)C1c1ccccc1Cl (stereo unspecified)	0.26

// returns reported ED50 for input CCOC(=O)C1=C(c2ccc(-n3c(C)nc4cnccc43)cc2)NC(C)=C(C(=O)Nc2ccccn2)C1c1cccnc1Cl (stereo unspecified)
13

What measured ED50 goes with CCOC(=O)C1=C(c2ccc(-n3c(C)nc4cnccc43)cc2)N=C(C)/C(=C(/O)OC2CCCCC2)C1c1ccccc1Cl (stereo unspecified) ?
4.7

----------
Target: Platelet-activating factor receptor (Mus musculus) (UniProt Q62035)
Assay: Ability to protect mice from lethal effects of an injection of PAF in vivo.
Format: functional, organism-based
Conditions: Mus sp.
result_type: log10 ED50 (log10 of the value in mg/kg)
Values reflect log10 of reported ED50 (mg/kg).

CCOC(=O)C1=C(c2ccc(-n3c(C)nc4cnccc43)cc2)NC(C)=C(C(=O)Nc2ccccn2)C1c1cccnc1 (stereo not drawn)	1.20
CCOC(=O)C1=C(c2ccc(-n3c(C)nc4cnccc43)cc2)NC(C)=C(C(=O)Nc2ccccn2)C1c1ccccc1OC(F)(F)F (stereo not drawn)	-0.70
CCOC(=O)C1=C(c2ccc(-n3c(C(F)(F)F)nc4cnccc43)cc2)NC(C)=C(C(=O)Nc2ccccn2)C1c1ccccc1Cl (stereo not drawn)	1.40
CCOC(=O)C1=C(c2ccc(-n3c(C)nc(C)c3C)cc2)NC(C)=C(C(=O)Nc2ccccn2)C1c1ccccc1Cl (stereo not drawn)	1.02
Cc1nnc2n1-c1sc(CCC(=O)N3CCOCC3)cc1C(c1ccccc1Cl)=NC2	0.31

Find the recorded log10 ED50 belonging to CCOC(=O)C1=C(c2ccc(-n3c(CC)nc4cnccc43)cc2)NC(C)=C(C(=O)Nc2ccccn2)C1c1ccccc1Cl (stereo not drawn) and report it.
1.02

Entry under review: CCOC(=O)C1=C(c2ccc(-c3c(C)nc4sccn34)cc2)NC(C)=C(C(=O)Nc2ccccn2)C1c1ccccc1Cl (stereo not drawn) . Reported log10 ED50?
0.73

Entry under review: CCOC(=O)C1=C(c2ccc(-c3sc(C)nc3C)cc2)NC(C)=C(C(=O)Nc2ccccn2)C1c1ccccc1Cl (stereo not drawn) . Reported log10 ED50?
0.87

----------
Target: Platelet-activating factor receptor (Mus musculus)
Assay: Ability to protect mice from lethal effects of an injection of PAF in vivo.
Type: functional, organism-based
Conditions: Mus sp.
result_type: ED50

Answered examples (2):
CCOC(=O)C1=C(c2ccc(-n3c(C)nc4cnccc43)cc2)NC(C)=C(C(=O)Nc2ccccn2)C1c1ccccn1 (stereo not drawn)	4.1 mg/kg
CCOC(=O)C1=C(c2ccc(-n3c(C)nc4cnccc43)cc2)N=C(C)/C(=C(/O)OCc2ccccc2)C1c1ccccc1Cl (stereo not drawn)	2 mg/kg

// below: ED50 requested for another compound
# query: ED50 | item CCOC(=O)C1=C(c2ccc(-n3c(C)nc4cnccc43)cc2)N=C(C)/C(=C(/O)OC(C)(C)C)C1c1ccccc1Cl (stereo not drawn) | system: Platelet-activating factor receptor (Mus musculus)
2 mg/kg
